- assay_summary: NCI Yeast Anticancer Drug Screen. Data for the mec2-1 strain (AID 157)
- condition_description: S. cerevisiae mec2-1 strain, at 5.0 µM (retest, dose inferred, filed as 0.5), hits give high values
- Method: Growth inhibition of yeast strains with defined genetic alterations is measured as a screen for potential anti-cancer activity. Selected strains with alterations in DNA damage repair or cell cycle control were exposed to compounds and growth inhibition was measured relative to vehicle treated controls. The strain used in this assay is mec2-1
Compounds without any hit were thinned out: in the full panel of roughly 79,000, 15% have a hit. Where a SMILES comes first, the peptide text is derived from it. Bridges are numbered along the chain shown (N, C = ends). [ ]: non-standard residue; d: D form. NMeV = CN[CH](C(=O)O)C(C)C; Sar = CNCC(=O)O
measured_property: growth inhibition (%)

>>> recorded_value("CN(C)CC1CCc2ccc3ccccc3c2C1=O (stereo unspecified)")
-13
>>> recorded_value("O=C(O)/C=C/C(=O)Nc1cccc2c1C(=O)c1ccccc1-2")
-18
>>> recorded_value("COc1cc(C2C(C(=O)Nc3ccc(Cl)c(Cl)c3)=C(C)NC(C)=C2C(=O)Nc2ccc(Cl)c(Cl)c2)ccc1O")
-4
>>> recorded_value("COc1ccc(-n2c3c(c4c(N)ncnc42)CCCC3)cc1")
-12
>>> recorded_value("O=C1CCC(c2ccccc2)=NN1c1nc2ccccc2s1")
-3
>>> recorded_value("CC(C)C1NC(=O)C(N)C(C)OC(=O)C(C(C)C)N(C)C(=O)CN(C)C(=O)C2CCCN2C1=O (stereo unspecified) (tested in a mixture with another compound) (H-TVP[Sar][NMeV]; ester 1-C; configuration not given here)")
10
>>> recorded_value("COc1cccc2c1OC(c1ccc(C#N)cc1)C([N+](=O)[O-])=C2 (stereo unspecified)")
84
>>> recorded_value("C#CCN1CCN(C(=S)N/N=C(\\C)c2ccccn2)CC1")
19
>>> recorded_value("CC(=O)Oc1ccc(/C=C2\\N=C(c3ccccc3)OC2=O)c(OC(C)=O)c1")
1
>>> recorded_value("CC12CCC3c4cc(O)ccc4CCC3C1CCC2O (stereo unspecified)")
-4
>>> recorded_value("Cn1c(-c2ccc(/C=N/NC(=S)N/N=C/c3ccc(-c4c[n+]5ccsc5n4C)cc3)cc2)c[n+]2ccsc12")
66
>>> recorded_value("CC1=C(C(=O)OC(C)C)C(c2ccccc2[N+](=O)[O-])C(C(=O)OC(CO[N+](=O)[O-])CO[N+](=O)[O-])=C(C)N1 (stereo unspecified)")
30
>>> recorded_value("COc1ccccc1NC(=O)c1ccccc1F")
-47
>>> recorded_value("CC(C)COP(=O)(OCC(C)C)C(NS(=O)(=O)c1ccccc1)(C(F)(F)F)C(F)(F)F")
-12
>>> recorded_value("O=C1C2C3CCC(O3)C2C(=O)N1c1cccc2ccccc12 (stereo unspecified)")
-5
>>> recorded_value("COC1/C=C\\OC2(C)Oc3c(C)c(O)c4c(O)c(c5[nH]c(-c6ccccc6)nc5c4c3C2=O)NC(=O)/C(C)=C\\C=C\\C(C)C(O)C(C)C(O)C(C)C(OC(C)=O)C1C (stereo unspecified)")
30
